Kindly supply the reported fluorescent response, esterase values for the records listed here.
# System: esterase
# testSummary: Fluorescent response to esterase (Table 1)
# Type: biochemical
# appliedConditions: relative fluorescence intensity, blank = 10; probe 21.3 μM, esterase 0.5 U/mL, 37° C., 10 minutes

A selection of reference data follows.
# smilesData, fluorescent response, esterase
data = [
    ("O=C1OC2(c3cc(Cl)c(OS(=O)(=O)c4ccc([N+](=O)[O-])cc4[N+](=O)[O-])cc3Oc3cc(OS(=O)(=O)c4ccc([N+](=O)[O-])cc4[N+](=O)[O-])c(Cl)cc32)c2ccccc21", 20),
    ("O=C1OC2(c3ccccc31)c1cc(F)c(OS(=O)(=O)c3ccc([N+](=O)[O-])cc3[N+](=O)[O-])c(F)c1Oc1c2cc(F)c(OS(=O)(=O)c2ccc([N+](=O)[O-])cc2[N+](=O)[O-])c1F", 15),
    ("O=C1OC2(c3cc(F)c(OS(=O)(=O)c4ccc([N+](=O)[O-])cc4[N+](=O)[O-])cc3Oc3cc(OS(=O)(=O)c4ccc([N+](=O)[O-])cc4[N+](=O)[O-])c(F)cc32)c2ccccc21", 23),
]

Now, please, on to the next compound.
For the compound shown here, O=C1OC2(c3ccc(OS(=O)(=O)c4ccc([N+](=O)[O-])cc4[N+](=O)[O-])cc3Oc3cc(OS(=O)(=O)c4ccc([N+](=O)[O-])cc4[N+](=O)[O-])ccc32)c2ccccc21 , give the reported fluorescent response, esterase.
17

====

# testSummary: Fluorescent response to glucose (Table 1)
# Type: biochemical
# appliedConditions: relative fluorescence intensity, blank = 10; probe 21.3 μM, glucose 50 μM, 37° C., 10 minutes
Kindly supply the reported fluorescent response, glucose values for the records listed here.
Give bare numbers.

A selection of reference data follows.
# compound, fluorescent response, glucose
records = [
    ("O=C1OC2(c3cc(Cl)c(OS(=O)(=O)c4ccc([N+](=O)[O-])cc4[N+](=O)[O-])cc3Oc3cc(OS(=O)(=O)c4ccc([N+](=O)[O-])cc4[N+](=O)[O-])c(Cl)cc32)c2ccccc21 [Compound 1b]", 10),
    ("O=C1OC2(c3cc(F)c(OS(=O)(=O)c4ccc([N+](=O)[O-])cc4[N+](=O)[O-])cc3Oc3cc(OS(=O)(=O)c4ccc([N+](=O)[O-])cc4[N+](=O)[O-])c(F)cc32)c2ccccc21 [Compound 1c]", 10),
    ("O=C1OC2(c3ccccc31)c1cc(F)c(OS(=O)(=O)c3ccc([N+](=O)[O-])cc3[N+](=O)[O-])c(F)c1Oc1c2cc(F)c(OS(=O)(=O)c2ccc([N+](=O)[O-])cc2[N+](=O)[O-])c1F [Compound 1d]", 10),
]

Now, please, on to the next compound.
For the compound shown here, O=C1OC2(c3ccc(OS(=O)(=O)c4ccc([N+](=O)[O-])cc4[N+](=O)[O-])cc3Oc3cc(OS(=O)(=O)c4ccc([N+](=O)[O-])cc4[N+](=O)[O-])ccc32)c2ccccc21 [Compound 1a] , give the reported fluorescent response, glucose.
10
